Cited source: PubChem BioAssay (NCI)

tested on: KM12 colon; test: NCI tumour cell line growth inhibition, 48 h; in the data active means GI50 below about 0.43 µM; inactive means the rest
Returns: one label drawn from T (active), F (inactive)

Some solved entries appear below for comparison.
compound | target-or-system | answer-label
CCN1CCC(Nc2ccnc3cc(Cl)ccc23)CC1 | KM12 colon | F
O=S(=O)(CCN1CCOCC1)Nc1cc(-c2ccc3ncnc(Nc4ccc(F)c(Cl)c4)c3c2)cnc1Cl | KM12 colon | F
O=C1/C=C/[C@@H](O)[C@@H]2C[C@@H](O)C[C@H]2/C=C/CCC[C@H](CCc2cccc3ccccc23)O1 | KM12 colon | T
COc1cc(C2CC(c3cccc(Nc4ccnc5cc(Cl)ccc45)c3)=NN2c2ccc(Cl)cc2)cc(OC)c1OC (centres undefined) | KM12 colon | F
COC(=O)C1=C(O)[C@H](C(=O)OC)C2(O)C(C(=O)OC)[C@H](c3ccc(OC(=O)C(C)c4ccccc4)cc3)C[C@@H]1[C@@H]2C(=O)OC (some centres undefined) | KM12 colon | F

Kindly provide the recorded test outcome for the following compound: CC1CCN(Cc2ccc(NC(=O)c3cc4ccc5cccnc5c4[nH]3)cc2)CC1 F

Kindly provide the recorded test outcome for the following compound: Cc1nc2c(c(N3CCCc4ccccc43)n1)CCC2 T

Kindly provide the recorded test outcome for the following compound: C=C(CN1CCN(c2ccc(C(F)(F)F)cc2)CC1)c1ccc(C(=O)Nc2ccccc2N)cc1 F

Kindly provide the recorded test outcome for the following compound: Cc1c(-c2ccc(C3CCCCC3)cc2)nc2ccc(F)cc2c1C(=O)O T

Kindly provide the recorded test outcome for the following compound: Oc1ccc(O)c(-c2cn3c(n2)SCC3)c1 F

Kindly provide the recorded test outcome for the following compound: Nc1c(C(=O)Nc2ccccc2)sc2nc3c(cc12)CCCCC3 F

###

tested on: SNB-19 CNS; experiment: NCI tumour cell line growth inhibition, 48 h
Consider the following molecules and their measured TGI readings.

# annotated cases, reported TGI shown
molecule | target-or-system | TGI
COc1ccc([N+](=O)[O-])c2c(NCCCN(C)C)ccnc12 | SNB-19 CNS | 28.2 µM
CSC1(C)C(=O)Nc2c(OCc3ccccc3)cc([N+](=O)[O-])cc21 (centres undefined) | SNB-19 CNS | > 100 µM
CCOP(=O)(OCC)/C(C#N)=C/c1cccn1C(C)C | SNB-19 CNS | > 100 µM
NNC(=O)CC(=O)Nc1cccc(Cl)c1 | SNB-19 CNS | > 100 µM
NCCSc1cc(O)c2c(c1N)C(=O)c1ccccc1C2=O | SNB-19 CNS | > 100 µM
CC(CC(N)C(=O)O)C(=O)O (centres undefined) | SNB-19 CNS | > 100 µM

Entry COCCN(CCNC(=O)c1cccc2c(N)c3cccc(C)c3nc12)CCOC : reported TGI = ? 22.3 µM

Entry Oc1ccc(O)c(-c2cn3c(n2)SCC3)c1 : reported TGI = ? 45.4 µM

Entry COC(=O)N1CC(=O)C(C(=O)NC23CC4CC(CC(C4)C2)C3)C1 (centres undefined) : reported TGI = ? > 100 µM

###

tested on: TK-10 renal; assay: NCI tumour cell line growth inhibition, 48 h
Consider the following molecules and their measured TGI readings.

# annotated cases, reported TGI shown
molecule | target-or-system | readout-kind | endpoint-result
Cc1ccc(C(=O)Nc2ccc(CP(=O)(O)O)cc2)cc1NC(=O)c1cccc(N)c1 | TK-10 renal | TGI | > 100 µM
N#CC(/C(CCC(=O)Nc1ccc(Cl)cc1)=N/NC(=O)c1cc2ccccc2cc1O)c1ccccc1 (stereo not drawn) | TK-10 renal | TGI | > 100 µM

Consider now this further molecule.
Entry O=C(CN(C(=O)OC12CC3CC(CC(C3)C1)C2)C(=O)OC12CC3CC(CC(C3)C1)C2)Oc1ccc([N+](=O)[O-])cc1 : reported TGI = ? > 100 µM
